- TARGET_OF_ASSAY: Glycogen synthase kinase-3 beta (Homo sapiens)
- Sequence (P49841 whole entry): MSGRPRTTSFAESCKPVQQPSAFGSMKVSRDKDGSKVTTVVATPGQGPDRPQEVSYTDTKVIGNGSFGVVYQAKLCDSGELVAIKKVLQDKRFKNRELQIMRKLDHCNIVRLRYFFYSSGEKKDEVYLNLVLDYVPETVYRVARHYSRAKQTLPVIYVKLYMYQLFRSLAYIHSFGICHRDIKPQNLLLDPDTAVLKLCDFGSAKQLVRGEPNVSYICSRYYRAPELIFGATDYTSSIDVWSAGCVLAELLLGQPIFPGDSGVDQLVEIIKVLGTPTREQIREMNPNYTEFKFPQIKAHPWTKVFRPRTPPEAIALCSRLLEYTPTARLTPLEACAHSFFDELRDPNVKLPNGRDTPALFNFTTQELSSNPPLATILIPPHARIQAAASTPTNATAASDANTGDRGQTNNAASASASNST
- ASSAY: Inhibition of recombinant human GSK3beta using prephosphorylated peptide as substrate measured after 30 mins by Kinase-glo luminescence assay
OUTCOME_MEASURE: IC50 (nM)

[I] COc1ccc(CNC(=O)Nc2nc3ccc(C(C)=O)cc3s2)cc1
[II] C=CC(=O)c1ccc2nc(NC(=O)NCc3ccc(OC)cc3)sc2c1
**Q:** Lab log: flag the item ( I or II ) with the smaller IC50 figure. Pick one and reply with its label.
**A:** I

[a] COc1ccc(CNC(=O)Nc2nc3ccc(C(C)=O)cc3[nH]2)cc1
[b] COc1ccc(CNC(=O)Nc2nc3ccc(C(=O)CBr)cc3[nH]2)cc1
**Q:** Lab log: flag the item ( a or b ) with the smaller IC50 figure. Pick one and reply with its label.
**A:** b
(b: 130 nM, a: 260 nM)
